Test system: PPARg DBDmut IVT, anti-PPARg (DBD mutation: PPARg1 K132A/R137A, NR concentration 270 nM)
Experiment: PBM binding z-score (relative to random genomic background probes); higher = stronger binding; sequences stand for … in GC…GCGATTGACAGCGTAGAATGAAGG
assayMetric: PBM binding z-score

- AGTCAAAGTTCACTAGGTAACGTAGGATTCAGCT: 0.509
- ACAGACAGGTGAGTGAAGATAACTCAGCTGGACG: 0.332
- CGAACTAGGTGAAGGACAGTGAATCTCCGCACGC: 1.02
- CGTGCAAGGTCATAGGAGGTCAGTGAAGACAGAT: -0.0772
- TTTCAAAGTTCAAAGGTAACGTAAGTATCCACAC: 1.37
- ACAGACAGGTGCTGAAGGTAACTCAGGCTATCAT: 0.258
- GTTACAGGGTCAGCTAGAGGCCAGAGTATGGAAA: -0.0967
- GCAGACAGGTGAAACGCATGTAACTCAGGGTGGC: -0.927
- CAAACTAGGTCTAGAGGTCAAAGTCCGCTTCCCG: 0.06
- CCTATTGGTTGACCATAAGGGCAACCGAAGCTCG: -1.22
- AGAACGAGGGCAATGAATTGATAGCACGGGTGGC: -0.0881
- TCAGACAGGTGAAGGTAACTTAGGTACGCAGTCG: 0.159
